biological target: Ubiquitin carboxyl-terminal hydrolase 28 (Homo sapiens); experiment: Concentration-response biochemical assay confirming initial hits as inhibitors of ubiquitin-specific protease 28 (AID 1645866); details: purified USP28, ubiquitin-rhodamine fluorescence, 30 min
The source made the active and inactive calls.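 Rule for the calls: active = in confirmatory dose-response testing, peak deubiquitinase inhibition of 30% or more; inactive = the rest.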
Tick one outcome: active, inactive

// below: answered compounds
COc1cccc(C(=O)Oc2ccc3c(=O)c(-c4ccc(OC)c(OC)c4)coc3c2)c1 ... active
Cc1ccc2nc(-c3cccc(-c4nc5ccc(C)cc5[nH]4)n3)[nH]c2c1 ... inactive
CCc1noc(-c2ccc(OCC(=O)Nc3ccc(C)cc3C)cc2)n1 ... active
CCC(=O)Nc1ccc(-c2nc(Cn3cc(C)cn3)c(C)o2)cc1 ... active
Cc1nc(-c2cccc(NC(=O)C3CCN(c4ccccc4)C3=O)c2)no1 (stereo unspecified) ... active
CC(C)(C)C(=O)Nc1ccc(C(=O)Nc2cccc(-c3nnc(-c4ccccc4)o3)c2)cc1 ... active

Problem: How did this test come out for `COc1ccc(-c2cc(-c3ccccc3)nc(SCC(N)=O)c2C#N)cc1OC` ?
Solution: active

Problem: Hi, do you know how `COc1c(O)cc(CC(=O)O)c(C(C)=O)c1O` came out in this test?
Solution: active

Problem: // outcome(item) with item = O=C1Nc2ccccc2C(=O)C1C(c1ccc(Cl)cc1)C1C(=O)Nc2ccccc2C1=O (stereo unspecified)
Solution: active

Problem: // param item: `CC(=O)c1oc2nc3c(c(-c4ccc(Cl)cc4)c2c1N)CCc1ccccc1-3` ; yields the recorded call
Solution: inactive

Problem: Test call, this compound: `COc1ccc(-c2cc(-c3nnc(CSc4nc5ccccc5n4C)o3)c3ccccc3n2)cc1OC`
Solution: inactive

====

target: Ubiquitin carboxyl-terminal hydrolase 28 (Homo sapiens) (UniProt Q96RU2); assay: Concentration-response biochemical assay confirming initial hits as inhibitors of ubiquitin-specific protease 28 (AID 1645866); settings: purified USP28, ubiquitin-rhodamine fluorescence, 30 min
Sequence (Q96RU2 whole entry, looked up): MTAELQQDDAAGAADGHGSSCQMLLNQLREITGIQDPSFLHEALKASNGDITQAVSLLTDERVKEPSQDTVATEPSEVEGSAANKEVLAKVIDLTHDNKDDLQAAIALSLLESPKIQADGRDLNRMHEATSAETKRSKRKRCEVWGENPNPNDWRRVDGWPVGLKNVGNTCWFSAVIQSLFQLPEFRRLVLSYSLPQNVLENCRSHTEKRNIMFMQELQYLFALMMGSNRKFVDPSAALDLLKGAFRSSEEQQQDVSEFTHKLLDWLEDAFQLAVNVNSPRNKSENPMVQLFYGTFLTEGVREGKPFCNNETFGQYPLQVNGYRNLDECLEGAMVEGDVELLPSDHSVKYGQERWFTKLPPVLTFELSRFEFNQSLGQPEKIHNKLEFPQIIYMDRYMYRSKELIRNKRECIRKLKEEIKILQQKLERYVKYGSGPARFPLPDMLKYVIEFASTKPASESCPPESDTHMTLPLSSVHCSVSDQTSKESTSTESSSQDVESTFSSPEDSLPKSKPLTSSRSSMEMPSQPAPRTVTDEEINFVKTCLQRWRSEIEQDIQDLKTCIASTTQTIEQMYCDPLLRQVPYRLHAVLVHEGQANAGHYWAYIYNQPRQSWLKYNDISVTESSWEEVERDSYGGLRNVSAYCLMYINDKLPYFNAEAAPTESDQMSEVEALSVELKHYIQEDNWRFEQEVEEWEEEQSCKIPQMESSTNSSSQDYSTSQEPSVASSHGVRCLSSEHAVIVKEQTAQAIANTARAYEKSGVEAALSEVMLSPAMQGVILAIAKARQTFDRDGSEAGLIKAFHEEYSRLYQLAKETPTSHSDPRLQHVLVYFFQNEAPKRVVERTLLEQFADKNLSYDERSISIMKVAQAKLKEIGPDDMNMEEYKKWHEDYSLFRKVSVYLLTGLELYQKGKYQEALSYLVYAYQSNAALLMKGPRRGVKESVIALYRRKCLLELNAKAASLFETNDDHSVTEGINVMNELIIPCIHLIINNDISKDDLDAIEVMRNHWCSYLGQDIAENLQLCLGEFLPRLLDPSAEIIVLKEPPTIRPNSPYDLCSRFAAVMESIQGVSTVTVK
Calls of active or inactive are those of the source.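 The calls were made as follows: active = in confirmatory dose-response testing, peak deubiquitinase inhibition of 30% or more; inactive = the rest.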
RECORDED_ENDPOINT: IC50

O=C(NCc1ccccc1)c1ccc2c(=O)n(-c3ccccc3)c(=O)[nH]c2c1 ... 18.6 µM
CC(=O)c1ccc(NC(=O)CC2C(=O)Nc3nc4ccccc4n32)cc1 (stereo unspecified) ... 27.3 µM
Cc1ccccc1NC(=O)c1ccc(N2CCCCC2)nn1 ... > 50 µM (inactive)
Cc1cc(C)n(-c2ccc(C(=O)NCc3ccc(F)cc3)cn2)n1 ... 19.7 µM
Cc1ccc(C(=O)c2cn(CC(=O)Nc3ccccc3)c3ccc(C)cc3c2=O)cc1 ... 6 µM

Problem: Need IC50 of `Fc1cccc(Cn2cc(-c3noc(-c4ccncc4)n3)nn2)c1` , thanks.
Solution: 24.9 µM

Problem: Item `Cc1ccc(CNC(=O)c2ccc(N3C(=O)[C@@H]4Cc5ccccc5CN4C3=O)cc2)cc1` has what recorded IC50?
Solution: 29.7 µM

Problem: Can you share its IC50? I mean this compound: `CCCc1nc2c(sc3nc4c(cc32)COC(C)(C)C4)c(=O)n1CC(=O)Nc1ccccc1C`
Solution: 21.9 µM

Problem: Endpoint output: IC50 of `COc1cc(Cl)ccc1Oc1ncnc2sc(C)c(C)c12` . Value?
Solution: > 50 µM (inactive)

Problem: Requested read-out: IC50. Entry: `CCn1c(COc2cccc(C(F)(F)F)c2)nnc1SCc1ccc(Cl)cc1`
Solution: 9.88 µM

Problem: # IC50 lookup, item `Cn1c(=O)[nH]c(=O)c2c1nc1n(CCc3ccccc3)c(-c3ccccc3)cn21`
Solution: 42.2 µM

Problem: What does the record list as IC50 for `O=C(NCc1ccccc1)Nc1cccc2ccccc12` ?
Solution: 29.3 µM

Problem: // returns reported IC50 for input `C/C=C\C1=CC(=O)[C@]23C[C@H]2[C@]2(C)CO[C@@]1(O)[C@@]3(O)O2`
Solution: > 50 µM (inactive)

Problem: # input compound: `O=C(CN1C=NC2=NS(=O)(=O)c3ccccc3N21)Nc1cc(F)ccc1F` ; wanted: its IC50
Solution: 28 µM

Problem: IC50 lookup needed for `CN(C)Cc1ccc(C(=O)Nc2ccc(-c3nccs3)cc2)cc1` , thanks.
Solution: 1.1 µM

Problem: Requested field: IC50. Item: `COC(=O)[C@]1(O)O[C@@]2(C(=O)OC)c3c(oc4cc(C)cc(O)c4c3=O)[C@H]3c4c(oc5cc(C)cc(O)c5c4=O)C[C@H]1[C@H]32`
Solution: > 50 µM (inactive)

Problem: GET /values?readout=IC50&item= `CCOc1ccc(NC(=O)Cn2c(=O)n(CC(=O)NCc3ccc(C)cc3)c(=O)c3sccc32)cc1`
Solution: 8.61 µM

Problem: Which IC50 value belongs to `CC(C)(C)c1ccc(C(=O)Nc2ccc(Cn3cncn3)cc2)cc1` ?
Solution: 28 µM

Problem: Dear colleague, I am looking for the recorded IC50 of the following compound: `O=C(NCCc1ccccc1)c1nnn(Cc2cccc(Cl)c2)c1-n1cccc1`
Solution: 1.37 µM

Problem: What IC50 value was documented for this compound, `NC(=O)c1nc(-c2ccccn2)nc2c1[nH]c(=O)n2-c1ccc2c(c1)OCO2` ?
Solution: 6.72 µM

Problem: Can you share its IC50? I mean this compound: `O=C(Nc1cccc(F)c1)c1ncoc1-c1ccco1`
Solution: > 50 µM (inactive)

====

target: UniProtKB Q96RU2; assay: Concentration-response biochemical assay confirming initial hits as inhibitors of ubiquitin-specific protease 28 (AID 1645866); settings: purified USP28, ubiquitin-rhodamine fluorescence, 30 min
Calls of active or inactive are those of the source.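 The calls were made as follows: active = in confirmatory dose-response testing, peak deubiquitinase inhibition of 30% or more; inactive = the rest.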
RECORDED_ENDPOINT: IC50

CC(=O)c1ccc(NC(=O)C2CCN(c3cncnc3N3CCCC3)CC2)cc1 ... 0.674 µM
O=C1c2ccccc2NC2(C(=O)Nc3ccc(Br)cc32)N1c1ccccc1 (stereo unspecified) ... 3.31 µM
c1ccc2c(c1)ccc1nnc(-c3ccc4c(c3)OCO4)n12 ... > 50 µM (inactive)
COCCNC(=O)c1cc(-c2cn(-c3ccccn3)c(C)n2)n2ccccc12 ... > 50 µM (inactive)
O=C(NC1CCCCC1)c1cc2c(cn1)[nH]c1ccccc12 ... 2.51 µM

Now consider a different compound.
Problem: Given `Cc1ccc(OC(=O)c2cn(-c3ccccc3)nc2-c2cccnc2)cc1` , state its recorded IC50.
Solution: > 50 µM (inactive)

====

biological target: UniProt Q96RU2; test: Concentration-response biochemical assay confirming initial hits as inhibitors of ubiquitin-specific protease 28 (AID 1645866); conditions: purified USP28, ubiquitin-rhodamine fluorescence, 30 min
Active and inactive are the calls of the source.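 The calls were made as follows: active = in confirmatory dose-response testing, peak deubiquitinase inhibition of 30% or more; inactive = the rest.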
RECORDED_ENDPOINT: IC50

See these solved cases before continuing.
CCOc1ccc(-c2nc(C#N)c(N3CCN(C(=O)c4ccccc4C)CC3)o2)cc1 ... 12 µM
CC(=O)N1CCc2cc(S(=O)(=O)NCc3ccc(C)cc3)ccc21 ... > 50 µM (inactive)

Problem: Fill in the blank: the reported IC50 of `O=C(CN(Cc1ccc(Cl)cc1)S(=O)(=O)c1ccc(Cl)cc1)N1CCOCC1` is ____.
Solution: > 50 µM (inactive)

Problem: Given the entry Cc1oc(C2CC2)cc1C(=O)N1CCC2(CC1)CC1(CO2)Nc2ccccc2-n2cccc21 (configuration not stated) , report its measured IC50.
Solution: > 50 µM (inactive)

Problem: Returns the measured IC50 for the input compound. Input: `COc1ccc(NC(=O)Cn2cc(C(=O)c3ccc(F)cc3)c(=O)c3cc(C)ccc32)cc1`
Solution: 19.7 µM

Problem: What does the record list as IC50 for CC1CCc2sc(NC(=O)c3ccccc3Oc3ccccc3)c(C(N)=O)c2C1 (configuration not stated) ?
Solution: 15.2 µM

Problem: // lookup IC50 for `Cc1cc(/C=C2/C(=N)N3C(c4ccccc4)=CSC3=NC2=O)c(C)n1-c1ccc2ccccc2c1`
Solution: > 50 µM (inactive)

Problem: Which IC50 value is on record for `COc1ccc(C(=O)CCN2CCOCC2)cc1[N+](=O)[O-]` ?
Solution: > 50 µM (inactive)

Problem: For `CC(C)(C)n1ncc2c(=O)n(Cc3cccc([N+](=O)[O-])c3)cnc21` , what is its reported IC50?
Solution: 6.69 µM

Problem: Data request, read-out IC50, for `COc1c(O)c(O)c2c(=O)cc(-c3ccc(O)cc3)oc2c1OC`
Solution: 27.2 µM

====

The following compounds each carry a recorded IC50 for Ubiquitin carboxyl-terminal hydrolase 28 (Homo sapiens) (UniProt Q96RU2).

// below: answered compounds
CC1(C(=O)NC2CCCC2)Cn2c(cc3ccccc32)C(=O)N1c1ccc(F)cc1 (stereo not given) ... 21.3 µM
CCOc1ccccc1C(=O)Oc1ccc2c(C)cc(=O)oc2c1 ... 23.2 µM
CCC(=O)N1c2ccccc2NC2=C(C(=O)CC(c3ccccc3OCc3ccccc3)C2)C1c1ccccc1 (stereo not given) ... 4.53 µM

Problem: Notebook: pull reported IC50 for Ubiquitin carboxyl-terminal hydrolase 28 (Homo sapiens) (UniProt Q96RU2), entry `O=C(Cn1cc(C(=O)C2CC2)c2ccccc21)NCc1ccc2c(c1)OCO2`
Solution: 24.9 µM

Problem: Identify the measured IC50 of `COc1ccc(CCNC(=O)CCCn2c(SCC(=O)NCc3ccco3)nc3ccccc3c2=O)cc1OC` for Ubiquitin carboxyl-terminal hydrolase 28 (Homo sapiens) (UniProt Q96RU2).
Solution: 35.7 µM
